# STUDY_TARGET: pirin (Homo sapiens, UniProt O00625)
# TEST_METHOD_NOTES: Pirin SPR (surface plasmon resonance) binding
# TEST_CONTEXT: SPR
VALUE_TYPE: Measured Rmax/Theoretical Rmax
Provide a numeric answer; units are not to be included.

Record excerpt, results attached:
COMPOUND | ENDPOINT_VALUE
Cc1ccc(NC(=O)c2ccc3c(c2)OCCO3)cc1NC(=O)c1ccc2nc(OCCCC(=O)NCCOCCNC(=O)COc3cccc4c3C(=O)N(C3CCC(=O)NC3=O)C4=O)ccc2c1 (stereo not shown) [PDP 3] | 0.44
O=C1CCC(N2C(=O)c3cccc(OCCOCCOCCN4CCN(Cc5ccc6cc(C(=O)Nc7cc(NC(=O)c8ccc9c(c8)OCCO9)ccc7Cl)ccc6n5)CC4)c3C2=O)C(=O)N1 (stereo not shown) [PDP 16] | 0.39
CCN1CCN(Cc2ccc3cc(C(=O)Nc4cc(NC(=O)c5ccc6c(c5)OCCO6)ccc4Cl)ccc3n2)CC1 [chlorobisamide 22] | 0.29

Below: the item to evaluate.
Retrieve Measured Rmax/Theoretical Rmax measured for O=C(COc1cccc2c1C(=O)N(C1CCC(=O)NC1=O)C2=O)NCCOCCC(=O)N1CCN(Cc2ccc3cc(C(=O)Nc4cc(NC(=O)c5ccc6c(c5)OCCO6)ccc4F)ccc3n2)CC1 (stereo not shown) [PDP 10] and print it.
0.40

====

# TEST_METHOD_NOTES: PDP aqueous stability protocol
# TEST_CONTEXT: phosphate buffer (PBS), pH 7.4
VALUE_TYPE: half-life at 100 µM (h)
Give the number; h is assumed, so skip it.

Retrieve half-life at 100 µM measured for Cc1ccc(NC(=O)c2ccc3c(c2)OCCO3)cc1NC(=O)c1ccc2nc(OCCCC(=O)NCCOCCNC(=O)COc3cccc4c3C(=O)N(C3CCC(=O)NC3=O)C4=O)ccc2c1 (stereo not shown) [PDP 3] and print it.
7.2

====

# STUDY_TARGET: CRBN-DDB1 complex (Homo sapiens, UniProt Q96SW2)
# Construct: His6-ZZ-HRV3C (N); made in house; host or cells: Sf9 insect cells (baculovirus co-infection)
# TEST_METHOD_NOTES: CRBN/DDB1 fluorescence polarization competition assay
# Type: binding
# TEST_CONTEXT: CRBN/DDB1 FP IC50, single repeat N=2, best-fit value, variable slope four parameters
VALUE_TYPE: pIC50
Answer as the number alone; pIC50 is minus log10 of concentration in mol/L.

Record excerpt, results attached:
COMPOUND | pIC50
O=C1CCC(N2C(=O)c3cccc(OCCOCCOCCN4CCN(Cc5ccc6cc(C(=O)Nc7cc(NC(=O)c8cccc9c8OCCO9)ccc7Cl)ccc6n5)CC4)c3C2=O)C(=O)N1 (stereo not shown) [PDP 21] | 6.56
O=C1CCC(N2C(=O)c3cccc(OCCOCCOCCN4CCN(Cc5ccc6cc(C(=O)Nc7cc(NC(=O)c8ccc9c(c8)OCCO9)ccc7Cl)ccc6n5)CC4)c3C2=O)C(=O)N1 (stereo not shown) [PDP 16] | 6.49
O=C(COc1cccc2c1C(=O)N(C1CCC(=O)NC1=O)C2=O)NCCOCCC(=O)N1CCN(Cc2ccc3cc(C(=O)Nc4cc(NC(=O)c5ccc6c(c5)OCCO6)ccc4F)ccc3n2)CC1 (stereo not shown) [PDP 10] | 6.48

Retrieve pIC50 measured for Cc1ccc(NC(=O)c2ccc3c(c2)OCCO3)cc1NC(=O)c1ccc2nc(OCCCC(=O)NCCOCCNC(=O)COc3cccc4c3C(=O)N(C3CCC(=O)NC3=O)C4=O)ccc2c1 (stereo not shown) [PDP 3] and print it.
6.30

====

# STUDY_TARGET: pirin (Homo sapiens, UniProt O00625)
# TEST_METHOD_NOTES: Pirin SPR (surface plasmon resonance) binding
# TEST_CONTEXT: Pirin SPR KD, equilibrium analysis, one site specific binding model, geometric mean n = 3
VALUE_TYPE: pKd
Answer as the number alone; pKd is minus log10 of concentration in mol/L.

Record excerpt, results attached:
COMPOUND | VALUE_TYPE | ENDPOINT_VALUE
O=C1CCC(N2C(=O)c3cccc(OCCOCCOCCN4CCN(Cc5ccc6cc(C(=O)Nc7cc(NC(=O)c8ccc9c(c8)OCCO9)ccc7Cl)ccc6n5)CC4)c3C2=O)C(=O)N1 (stereo not shown) | pKd | 7.26
Cc1ccc(NC(=O)c2ccc3c(c2)OCCO3)cc1NC(=O)c1ccc2nc(OCCCC(=O)NCCOCCNC(=O)COc3cccc4c3C(=O)N(C3CCC(=O)NC3=O)C4=O)ccc2c1 (stereo not shown) | pKd | 6.96

Retrieve pKd measured for O=C(COc1cccc2c1C(=O)N(C1CCC(=O)NC1=O)C2=O)NCCOCCC(=O)N1CCN(Cc2ccc3cc(C(=O)Nc4cc(NC(=O)c5ccc6c(c5)OCCO6)ccc4F)ccc3n2)CC1 (stereo not shown) and print it.
6.64

====

# STUDY_TARGET: pirin (Homo sapiens)
# TEST_METHOD_NOTES: Pirin SPR (surface plasmon resonance) binding
# TEST_CONTEXT: Pirin SPR pKD, mean of 3 values (unrounded), column statistics
VALUE_TYPE: pKd
Answer as the number alone; pKd is minus log10 of concentration in mol/L.

COMPOUND | pKd
CCN1CCN(Cc2ccc3cc(C(=O)Nc4cc(NC(=O)c5ccc6c(c5)OCCO6)ccc4Cl)ccc3n2)CC1 [chlorobisamide 22] | 7.68
O=C1CCC(N2C(=O)c3cccc(OCCOCCOCCN4CCN(Cc5ccc6cc(C(=O)Nc7cc(NC(=O)c8ccc9c(c8)OCCO9)ccc7Cl)ccc6n5)CC4)c3C2=O)C(=O)N1 (stereo not drawn) [PDP 16] | 7.26

Below: the item to evaluate.
Retrieve pKd measured for Cc1ccc(NC(=O)c2ccc3c(c2)OCCO3)cc1NC(=O)c1ccc2nc(OCCCC(=O)NCCOCCNC(=O)COc3cccc4c3C(=O)N(C3CCC(=O)NC3=O)C4=O)ccc2c1 (stereo not drawn) [PDP 3] and print it.
6.97

====

# STUDY_TARGET: pirin (Homo sapiens, UniProt O00625)
# TEST_METHOD_NOTES: Pirin SPR (surface plasmon resonance) binding
# TEST_CONTEXT: Pirin SPR pKD±SEM, n = 3 independent biological repeats
VALUE_TYPE: pKd
Answer as the number alone; pKd is minus log10 of concentration in mol/L.

Record excerpt, results attached:
MOLECULE | VALUE_TYPE | ENDPOINT_VALUE
Cc1ccc(NC(=O)c2ccc3c(c2)OCCO3)cc1NC(=O)c1ccc2nc(OCCCC(=O)NCCOCCNC(=O)COc3cccc4c3C(=O)N(C3CCC(=O)NC3=O)C4=O)ccc2c1 (stereo not shown) | pKd | 6.97
O=C(COc1cccc2c1C(=O)N(C1CCC(=O)NC1=O)C2=O)NCCOCCC(=O)N1CCN(Cc2ccc3cc(C(=O)Nc4cc(NC(=O)c5ccc6c(c5)OCCO6)ccc4F)ccc3n2)CC1 (stereo not shown) | pKd | 6.63

Below: the item to evaluate.
Under pirin (Homo sapiens, UniProt O00625): report pKd of CCN1CCN(Cc2ccc3cc(C(=O)Nc4cc(NC(=O)c5ccc6c(c5)OCCO6)ccc4Cl)ccc3n2)CC1 [chlorobisamide 22] .
7.68

====

The compounds listed here are annotated with their chromatographic logD.
# TEST_METHOD_NOTES: LogD7.4 determination by RP-HPLC
# TEST_CONTEXT: pH 7.4

COMPOUND | ENDPOINT_VALUE
O=C1CCC(N2C(=O)c3cccc(OCCOCCOCCN4CCN(Cc5ccc6cc(C(=O)Nc7cc(NC(=O)c8ccc9c(c8)OCCO9)ccc7Cl)ccc6n5)CC4)c3C2=O)C(=O)N1 (stereo not shown) | 2.7

Retrieve chromatographic logD measured for O=C(COc1cccc2c1C(=O)N(C1CCC(=O)NC1=O)C2=O)NCCOCCC(=O)N1CCN(Cc2ccc3cc(C(=O)Nc4cc(NC(=O)c5ccc6c(c5)OCCO6)ccc4F)ccc3n2)CC1 (stereo not shown) and print it.
1.9

Retrieve chromatographic logD measured for Cc1ccc(NC(=O)c2ccc3c(c2)OCCO3)cc1NC(=O)c1ccc2nc(OCCCC(=O)NCCOCCNC(=O)COc3cccc4c3C(=O)N(C3CCC(=O)NC3=O)C4=O)ccc2c1 (stereo not shown) and print it.
2.2

Retrieve chromatographic logD measured for O=C1CCC(N2C(=O)c3cccc(OCCOCCOCCN4CCN(Cc5ccc6cc(C(=O)Nc7cc(NC(=O)c8cccc9c8OCCO9)ccc7Cl)ccc6n5)CC4)c3C2=O)C(=O)N1 (stereo not shown) and print it.
2.9

====

# STUDY_TARGET: CRBN-DDB1 complex (Homo sapiens)
# Construct: His6-ZZ-HRV3C (N); made in house; host or cells: Sf9 insect cells (baculovirus co-infection)
# TEST_METHOD_NOTES: CRBN/DDB1 fluorescence polarization competition assay
# Format: binding
# TEST_CONTEXT: best-fit value, variable slope four parameters; read-out: CRBN/DDB1 FP IC50, single repeat N=3
The compounds listed here are annotated with their IC50.

COMPOUND | IC50
Cc1ccc(NC(=O)c2ccc3c(c2)OCCO3)cc1NC(=O)c1ccc2nc(OCCCC(=O)NCCOCCNC(=O)COc3cccc4c3C(=O)N(C3CCC(=O)NC3=O)C4=O)ccc2c1 (stereo not shown) | 811 nM
O=C1CCC(N2C(=O)c3cccc(OCCOCCOCCN4CCN(Cc5ccc6cc(C(=O)Nc7cc(NC(=O)c8cccc9c8OCCO9)ccc7Cl)ccc6n5)CC4)c3C2=O)C(=O)N1 (stereo not shown) | 444 nM
O=C(COc1cccc2c1C(=O)N(C1CCC(=O)NC1=O)C2=O)NCCOCCC(=O)N1CCN(Cc2ccc3cc(C(=O)Nc4cc(NC(=O)c5ccc6c(c5)OCCO6)ccc4F)ccc3n2)CC1 (stereo not shown) | 377 nM

Below: the item to evaluate.
Retrieve IC50 measured for O=C1CCC(N2C(=O)c3cccc(OCCOCCOCCN4CCN(Cc5ccc6cc(C(=O)Nc7cc(NC(=O)c8ccc9c(c8)OCCO9)ccc7Cl)ccc6n5)CC4)c3C2=O)C(=O)N1 (stereo not shown) and print it.
519 nM
